assay: BSK_MyoF_SRB: Viability Assessment in the BioMAP Diversity Plus: MyoF Assay (AID 2284267); settings: primary human lung fibroblasts;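 further: total protein by SRB absorbance in parallel cultures as cytotoxicity measure; cells assessed 24 h after compound addition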
Activity calls are given as the source filed them. How the source made its calls: active means hit-call score of the fitted dose curve at least 0.9, where 1 is the maximum; inactive means score below 0.9.
Outcomes: active, inactive

1) CCCCCCCCCCCCCC[N+](C)(C)C
active
2) NCC(F)(F)C(F)(F)C(F)(F)C(F)(F)C(F)(F)C(F)(F)C(F)(F)F
inactive
3) FC(F)(I)C(F)(F)C(F)(F)C(F)(F)C(F)(F)C(F)(F)I
active
4) C=C(C)C(=O)OCCC(F)(F)C(F)(F)C(F)(F)C(F)(F)C(F)(F)C(F)(F)F
inactive
5) OCCC(F)(F)C(F)(F)C(F)(F)C(F)(F)C(F)(F)C(F)(F)F
inactive

====

test: Tanguay_ZF_120hpf_ActivityScore_legacy: (Legacy) Oregon State University Tanguay Lab 120 Hour Post-fertilization zebrafish Assay Score for Activity (AID 2283742)
Calls of active or inactive are those of the source. Rule for the calls: active = hit-call score of the fitted dose curve at least 0.9, where 1 is the maximum; inconclusive = response in the unintended direction; inactive = score below 0.9.
Classes used: yes for active, no for inactive

1. CCOC(=O)CC(O)(CC(=O)OCC)C(=O)OCC
no
2. CCc1ccc(CCOc2ccc(CC3SC(=O)NC3=O)cc2)nc1 (stereo unspecified)
no
3. CC(C)(C)c1ccc(O)c(C(C)(C)C)c1
yes
4. OC1CCC(C2CCCCC2)CC1 (stereo unspecified)
no
5. Cc1oc(-c2ccccc2)nc1CCOc1ccc(C[C@H](Nc2ccccc2C(=O)c2ccccc2)C(=O)O)cc1
yes
6. CC(=O)NC1(c2cccc(F)c2)CCN(CC[C@@]2(c3ccc(Cl)c(Cl)c3)CN(c3ccccc3)C(=O)CO2)CC1
no

====

read-out: Interleukin-8 (IL8), CXCL8 (gene 3576); experiment: BSK_hDFCGF_IL8: BioMAP Diversity Plus: hDFCGF Assay for Interleukin-8 (IL8) Biomarker Activity (AID 2283058); conditions: primary human foreskin fibroblasts; actives raise or lower the signal
Calls of active or inactive are those of the source. Rule for the calls: active = hit-call score of the fitted dose curve at least 0.9, where 1 is the maximum; inactive = score below 0.9.
Possible outcomes: class 1 = active, class 0 = inactive

1) NC(=O)N1C(=O)C(C(=O)c2cc(Cl)cs2)c2cc(F)c(Cl)cc21 (stereo not given)
class 1
2) ClC1=C(Cl)C(Cl)(Cl)C(Cl)=C1Cl
class 1
3) O=C(O)Cc1cc(I)c(Oc2cc(I)c(O)c(I)c2)c(I)c1
class 1
4) CC(=O)NC1(c2cccc(F)c2)CCN(CC[C@@]2(c3ccc(Cl)c(Cl)c3)CN(c3ccccc3)C(=O)CO2)CC1
class 1
5) CC[C@H](C)[C@@H](C(=O)O)n1sc2ccccc2c1=O
class 0

====

read-out: Interleukin-8 (IL8), CXCL8 (gene 3576); test: BSK_SAg_IL8: BioMAP Diversity Plus: SAg Assay for Interleukin-8 (IL8) Biomarker Activity (AID 2283094); details: primary human HUVEC with PBMC; actives raise or lower the signal
The source made the active and inactive calls. The calls were made as follows: active = hit-call score of the fitted dose curve at least 0.9, where 1 is the maximum; inactive = score below 0.9.
Outcome codes: active, inactive

1. CCCCCCCCC(=O)O
inactive
2. CC#C[C@]1(O)CC[C@H]2[C@@H]3CCC4=CC(=O)CCC4=C3[C@@H](c3ccc(N(C)C)cc3)C[C@@]21C
inactive
3. COC(=O)CCCCC(=O)OC
inactive
4. Oc1cc2ccccc2c2ccccc12
active
5. CC(C)(C)c1ccc(O)c(C(C)(C)C)c1
active
6. CC(C)(C)CC(C)(C)c1ccc(O)c(-n2nc3ccccc3n2)c1
inactive
